Data origin: paper PMC3988166

Test: Caco-2 cell permeability assay in the presence of phloretin (inhibitor for GLUT2)
Assay type: in vitro ADME, human
Details: Caco-2 cell monolayer, 200 µM compound + 100 µM phloretin, n = 3; read-out: P app, Phloretin
# key: entry, value: Papp A→B

querySmiles	Papp A→B [×10⁻⁶ cm/s]
CC(C)C[C@H](NC(=O)[C@H](Cc1ccccc1)NC(=O)CNC(=O)CNC(=O)[C@H](Cc1ccc(O)cc1)NC(=O)CCC(=O)N[C@@H]1O[C@H](CO)[C@H](O)[C@H](O)[C@H]1O)C(N)=O	1.58
CC(C)C[C@H](NC(=O)[C@H](Cc1ccccc1)NC(=O)CNC(=O)CNC(=O)[C@H](Cc1ccc(O)cc1)NC(=O)CCC(=O)N[C@@H]1O[C@H](CO)[C@@H](O[C@@H]2O[C@H](CO)[C@H](O[C@H]3O[C@H](CO)[C@H](O)[C@H](O)[C@H]3O)[C@H](O)[C@H]2O)[C@H](O)[C@H]1O)C(N)=O	0.712
CC(C)C[C@H](NC(=O)[C@H](Cc1ccccc1)NC(=O)CNC(=O)CNC(=O)[C@H](Cc1ccc(O)cc1)NC(=O)CCC(=O)N[C@@H]1O[C@H](CO)[C@@H](O[C@@H]2O[C@H](CO)[C@H](O)[C@H](O)[C@H]2O)[C@H](O)[C@H]1O)C(N)=O	0.921
